# measurementDescription: in vitro
# Format: cell-based
# conditionsUsed: African green monkey
Where a name gives a salt, the structure may show the parent alone.

| molecule | IC50 at 72 h (µg/mL) |
| --- | --- |
| COc1cccc2c1C(=O)c1c(O)c3c(c(O)c1C2=O)C[C@@](O)(C(=O)CO)C[C@@H]3O[C@H]1C[C@H](N)[C@H](O)[C@H](C)O1 [Doxorubicin, Doxorubicin HCl] | 0.06 |

Values from patent US20150174059A1
